measurement-target: hKOR (Homo sapiens)
Construct: β-galactosidase enzyme fragment for EFC (ProLink tag of the PathHunter system; name and presence on the receptor from own knowledge); host or cells: U2OS-β-arrestin2-EFC-hKOR (PathHunter) cells
Sequence (P41145 whole entry, the tested form may be a part): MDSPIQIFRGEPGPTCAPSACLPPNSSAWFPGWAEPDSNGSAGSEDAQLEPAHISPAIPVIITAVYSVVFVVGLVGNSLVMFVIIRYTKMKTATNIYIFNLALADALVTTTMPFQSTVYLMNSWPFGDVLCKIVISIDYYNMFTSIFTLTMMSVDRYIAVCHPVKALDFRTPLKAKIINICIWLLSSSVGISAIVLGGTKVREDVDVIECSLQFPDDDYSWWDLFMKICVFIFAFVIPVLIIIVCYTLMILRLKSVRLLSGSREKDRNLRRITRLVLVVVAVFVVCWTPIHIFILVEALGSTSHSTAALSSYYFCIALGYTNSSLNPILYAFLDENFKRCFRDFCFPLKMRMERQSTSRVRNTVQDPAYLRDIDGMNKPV
Type: cell-based

compound | Bias Factor
COC(=O)[C@@H]1C[C@H](OC(C)=O)C(=O)[C@@H]2[C@H]3C[C@@H](Sc4ccccc4)CC(=O)[C@@H]3CC[C@]21C [compound 33] | 0.51
COC(=O)[C@@H]1C[C@H](OC(C)=O)C(=O)[C@@H]2[C@H]3C[C@@H](c4ccoc4)CC(=O)[C@@H]3CC[C@]21C [compound 1, O6C-20-nor-SalA] | 0.34
COC(=O)[C@@H]1C[C@H](OC(C)=O)C(=O)[C@@H]2[C@H]3C[C@@H](c4c[nH]c5ccccc45)CC(=O)[C@@H]3CC[C@]21C [compound 27] | 3.96
COC(=O)[C@@H]1C[C@H](OC(C)=O)C(=O)[C@@H]2[C@H]3C[C@@H](c4ccccc4)CC(=O)N[C@@H]3CC[C@]21C [compound 35] | 5.48
COC(=O)[C@@H]1C[C@H](OC(C)=O)C(=O)[C@@H]2[C@H]3C[C@@H](c4ccccc4)CC(=O)[C@@H]3CC[C@]21C [24a] | 0.39
COC(=O)[C@@H]1C[C@H](OC(C)=O)C(=O)[C@@H]2[C@H]3C[C@@H](c4ccc(Cl)cc4)CC(=O)[C@@H]3CC[C@]21C [compound 29] | 3.16
COC(=O)[C@@H]1C[C@H](OC(C)=O)C(=O)[C@@H]2[C@H]3C[C@@H](c4cccc(Cl)c4)CC(=O)[C@@H]3CC[C@]21C [compound 31] | 2.50
CON=C1CC(c2ccccc2)CC2C1CCC1(C)C(C(=O)OC)CC(OC(C)=O)C(=O)C21 (centres unmarked) [compound 38] | 2.28
COC(=O)[C@@H]1C[C@H](OC(C)=O)C(=O)[C@@H]2[C@H]3C[C@H](c4ccccc4)CC(=O)[C@@H]3CC[C@]21C [24b] | 0.32
COC(=O)C1CC(OC(C)=O)C(=O)C2C3CC(c4ccoc4)CC(=NO)C3CCC12C (centres unmarked) [compound 36] | 2.66
COC(=O)[C@@H]1C[C@H](OC(C)=O)C(=O)[C@@H]2[C@H]3C[C@@H](c4ccc(C)cc4)CC(=O)[C@@H]3CC[C@]21C [compound 28] | 3.88
